# System: young adult male Swiss-Webster strain albino mice
# EXPERIMENTAL_DETAILS: Acute oral toxicity (ALD50)
# Format: in vivo
# EXPERIMENTAL_CONDITIONS: 250 mg/kg oral, aqueous solution
QUANTITY_NAME: Mortality 24 Hrs

- CCCCCCCCNc1cc[n+](CCCCCCCCCC[n+]2ccc(NCCCCCCCC)cc2)cc1 [10A,B]: 0/3
- CCCCCCCNc1cc[n+](CCCCCCCCC[n+]2ccc(NCCCCCCC)cc2)cc1: 1/3
- CCCCCCNc1cc[n+](CCCCCCCCCCCCCC[n+]2ccc(NCCCCCC)cc2)cc1: 0/3
- CCCCCCCNc1cc[n+](CCCCCCCCCCCC[n+]2ccc(NCCCCCCC)cc2)cc1: 1/3
- CCCCCCCNc1cc[n+](CCCCCCCCCC[n+]2ccc(NCCCCCCC)cc2)cc1: 0/3
- CCCCCCCCNc1cc[n+](CCCCCCCC[n+]2ccc(NCCCCCCCC)cc2)cc1: 0/3

Memo: CCCCC(CC)CNc1cc[n+](CCCCCCCCCC[n+]2ccc(NCC(CC)CCCC)cc2)cc1 (centres unmarked) , reported Mortality 24 Hrs: 0/3

Memo: CCCCCCCNc1cc[n+](CCCCCCCC[n+]2ccc(NCCCCCCC)cc2)cc1 , reported Mortality 24 Hrs: 0/3
